system: U251 CNS
Hello, when you answer, please use one of the following outcomes: Y (active), N (inactive)

Q. State the result this test recorded for COc1cc2c3c(n(C)c(=O)c2cc1OC)-c1cc2c(cc1/C3=C\CCCCN1C(=O)c3ccccc3C1=O)OCO2 .
A. N

Q. Cool, now O=C(NN1C(=O)CSC12CCCCC2)c1[nH]c2ccc(Br)cc2c1-c1ccccc1
A. N

Q. # iterate: NC(=O)c1csc(C2OC(CO)C(O)C2O)n1 (stereo not given)
A. N

Q. Queued: CCN(CC)c1ccc2cc(C(=O)Nc3ccc4[nH]c(C(=O)N5C[C@@H](CCl)c6c5cc(OC(=O)Nc5ccccc5)c5[nH]cc(C)c65)cc4c3)oc2c1
A. N

Q. For COc1ccc(-c2cc(-c3ccc(C)cc3)nc3nc(=S)[nH]c(N)c23)cc1 then?
A. N

Q. Next compound up: CNCCCNCCCCNCCCN1C(=O)c2ccc3c4c(ccc(c24)C1=O)C(=O)N(CCCNCc1ccccc1OC)C3=O
A. N

Q. Cool, now COc1ccc(-c2[nH]c3ccccc3c2-c2ccc(OC)cc2)cc1
A. N

Q. Another: CO/N=C(/C)c1ccc(NC(=O)CSc2nnc(-c3ccncc3)n2-c2ccccc2)cc1
A. N

Q. Subsequent entry: O=C1c2cccnc2C(=O)c2c1c(C(=O)NCCCN1CCCCC1)c1ccccn21
A. N

Q. Thanks! And CN1CCN(C(=O)c2cc(-c3ccc4ncnc(N5CCc6cc(F)c(Cl)cc65)c4c3)cnc2N)CC1 ?
A. Y
